assay.remarks: Human hepatocyte stability test
Type: in vitro ADME
condition.set: human hepatocytes; read-out: Mean intrinsic clearance
Protocol: Assessment of certain in vitro ADME (absorption, distribution, metabolism, and excretion) parameters for certain compounds of the invention was conducted by BioFocus (Saffron Walden, UK).
measurement.label: hepatocyte CLint (µL/min/1e6 cells)
State the answer as a number, implicitly in µL/min/1e6 cells.

Prompt line: For the compound "COCCOCCOCCNC(=O)c1cc(Nc2cc(Oc3ccc(NC(=O)Nc4cc(C(C)(C)C)cc(NS(C)(=O)=O)c4OC)c4ccccc34)ccn2)cc(OC)c1" , what hepatocyte CLint is on record?
Response line: 39

Prompt line: For the compound "COc1cc(Nc2cc(Oc3ccc(NC(=O)Nc4cc(C(C)(C)C)cc(NS(C)(=O)=O)c4OC)c4ccccc34)ccn2)cc(C(=O)NCCN2CCOCC2)c1" , what hepatocyte CLint is on record?
Response line: 15

Prompt line: For the compound "COCCOCCOCCOc1cc(Nc2nccc(Oc3ccc(NC(=O)Nc4cc(C(C)(C)C)cc(NS(C)(=O)=O)c4OC)c4ccccc34)n2)cc(OC)c1" , what hepatocyte CLint is on record?
Response line: 29

Reference source for all entries: patent US9481648B2
